# System: apomorphine induced hyperactivity
# assay-explanation: Block of apomorphine-induced hyperactivity in rats (number of animals displaying hyperactivity)
# Type: in vivo, Male Sprague-Dawley rats
# experimental-context: Rattus norvegicus, ip, 1 h, i.p., 60 min before apomorphine hydrochloride 1 mg/kg s.c., 60 min observation, read-out: Hyperactivity ED50
Structures can show the parent of a compound that is named as a salt.
Overview of recorded ED50 for various compounds
Give just the numeric value; µmol/kg need not be written.

Solved cases (6 shown):
>  <compound>
CCN1CCCC1CNC(=O)c1cc(S(N)(=O)=O)ccc1OC (centres unmarked) [Sulpiride, reference compound]

>  <ED50 (µmol/kg)>
50

$$$$
>  <compound>
CCN1CCCC1CNC(=O)c1c(OC)ccc(Cl)c1OC (racemic) [Example 8, hydrochloride]

>  <ED50 (µmol/kg)>
30

$$$$
>  <compound>
CCN1CCCC1CNC(=O)c1c(OC)c(Br)cc(Br)c1OC.Cl (racemic) [Example 9, hydrochloride]

>  <ED50 (µmol/kg)>
1.8

$$$$
>  <compound>
CCN1CCCC1CNC(=O)c1c(OC)c(Br)cc(Br)c1OC (single isomer, unassigned) [Example 13, hydrochloride]

>  <ED50 (µmol/kg)>
0.33

$$$$
>  <compound>
CCN1CCCC1CNC(=O)c1c(OC)c(Cl)cc(Cl)c1OC (racemic) [Example 10]

>  <ED50 (µmol/kg)>
3

$$$$
>  <compound>
CCN1CCCC1CNC(=O)c1c(OC)c(Cl)cc(Br)c1OC (racemic) [Example 11]

>  <ED50 (µmol/kg)>
3.9

$$$$

Please look at the following compound next.
Query :: Fill in ED50 for record CCN1CCCC1CNC(=O)c1c(OC)ccc(Br)c1OC.Cl (racemic) [Example 7, hydrochloride]
Result :: 11
